# tgt: CYP3A4 (Homo sapiens, UniProt P08684)
# Sequence (P08684 whole entry): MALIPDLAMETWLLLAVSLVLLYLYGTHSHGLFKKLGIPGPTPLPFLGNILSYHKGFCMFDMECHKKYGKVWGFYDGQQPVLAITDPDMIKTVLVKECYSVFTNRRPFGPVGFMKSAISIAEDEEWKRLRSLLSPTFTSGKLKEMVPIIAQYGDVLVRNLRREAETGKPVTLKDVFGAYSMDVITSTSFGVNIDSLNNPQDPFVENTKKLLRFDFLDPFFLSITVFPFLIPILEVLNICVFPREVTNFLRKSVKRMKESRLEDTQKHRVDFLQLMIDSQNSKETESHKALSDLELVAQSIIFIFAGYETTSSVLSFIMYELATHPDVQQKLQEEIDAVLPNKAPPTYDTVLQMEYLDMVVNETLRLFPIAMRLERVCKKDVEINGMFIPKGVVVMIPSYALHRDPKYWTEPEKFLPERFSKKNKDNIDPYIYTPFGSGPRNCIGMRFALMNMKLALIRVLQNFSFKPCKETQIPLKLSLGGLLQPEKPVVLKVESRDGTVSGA
# test.details: Determination of compound Kiapp against recombinant CYP3A4 enzyme (BFC fluorescent substrate)
# Format: biochemical
# assay.setup: Super. enzyme preparation, read-out: Kiapp (BFC, Super.)
readout.label: pKi
Numbers only, as −log10 of the molar value.

Consider the worked cases shown below.
compound	pKi
Cc1cncc(NS(=O)(=O)c2ccccc2C(=O)N(C)Cc2ccc(F)c(F)c2)c1	8.39
CCOc1ccncc1NS(=O)(=O)c1ccccc1C(=O)NCCc1ccccc1C	8.48
COc1cncc(NS(=O)(=O)c2ccccc2C(=O)N2CCOC(c3c(F)cccc3F)C2)c1 (stereo not drawn)	7.13
Cc1cncc(NS(=O)(=O)c2ccccc2C(=O)N(C)CC2CCCC2)c1	8.27

# batch size: 4; output pKi per entry
1. CN(c1cccnc1)S(=O)(=O)c1ccccc1C(=O)NCC(C)(C)C
2. O=C(NCc1ccccc1)c1ccccc1S(=O)(=O)Nc1cccnc1
3. COc1cncc(NS(=O)(=O)c2ccccc2C(=O)NCCO)c1
4. CC1CC(C)CN(C(=O)c2ccccc2S(=O)(=O)N(C)c2cccnc2)C1 (stereo not drawn)

6.85
7.98
6.20
6.86

---

# tgt: CYP3A4 (Homo sapiens)
# test.details: Determination of compound Kiapp against recombinant CYP3A4 enzyme (BFC fluorescent substrate)
# Format: biochemical
# assay.setup: Baculo. enzyme preparation, read-out: Kiapp (BFC, Baculo.)
Class membership depends on Ki alone; the intervals are low end (below 90 nM), middle (90 nM to below 400 nM), high end (400 nM or more)

Worked cases, answers included:
compound	class
COc1cncc(NS(=O)(=O)c2ccccc2C(=O)NC2CC3CCC2C3)c1 (stereo not drawn)	middle
CCCCN(C)C(=O)c1ccccc1S(=O)(=O)Nc1cnccc1C	middle
CCOc1cncc(NS(=O)(=O)c2ccccc2C(=O)NCc2ccc(F)c(C(F)(F)F)c2)c1	low end
COc1cncc(NS(=O)(=O)c2ccccc2C(=O)NC2C3CC4CC(C3)CC2C4)c1 (stereo not drawn)	low end
CCCCCNC(=O)c1ccccc1S(=O)(=O)N(C)c1cncc(OC)c1	low end

Into which bin does this compound go? CC(C)(CN1CCCCC1)NC(=O)c1ccccc1S(=O)(=O)Nc1cccnc1
high end

Class for O=C(NC1CCCCC1)c1ccccc1S(=O)(=O)Nc1cccnc1 ?
high end

Place this compound in its band: CCOc1ccncc1NS(=O)(=O)c1ccccc1C(=O)N[C@@H](C)C(C)C
middle

Just checking, what class would you give O=C(NC1Cc2ccccc2C1)c1ccccc1S(=O)(=O)Nc1cccnc1 here?
middle

---

Can you tell me pIC50 for the items I'm about to list?
# tgt: CYP3A4 (Homo sapiens, UniProt P08684)
# test.details: Determination of IC50 against CYP3A4 by measurement of inhibition of midazolam metabolism (human liver microsomes, 1-hydroxymidazolam by LC-MS/MS)
# Format: biochemical
# Parameters: 0.1 mg/mL human liver microsomes
# assay.setup: 2 μM midazolam, 0.1 mg/mL human liver microsomes
One number for each entry, as −log10 of the molar value.

In the examples that follow, each entry is paired with its recorded pIC50.
smiles.input	tgt	pIC50
CN(Cc1ccccc1F)C(=O)c1ccccc1S(=O)(=O)Nc1cccnc1	CYP3A4 (Homo sapiens, UniProt P08684)	7.42
COCCN(C)C(=O)c1ccccc1S(=O)(=O)Nc1cnccc1OC	CYP3A4 (Homo sapiens, UniProt P08684)	6.51
CCOc1ccncc1NS(=O)(=O)c1ccccc1C(=O)N(C)Cc1cccc(F)c1	CYP3A4 (Homo sapiens, UniProt P08684)	7.68

Would you be so kind as to report pIC50 for each listed record?
1. COc1cncc(NS(=O)(=O)c2ccccc2C(=O)NCc2cccc(Cl)c2)c1
2. COc1cccc(CCNC(=O)c2ccccc2S(=O)(=O)Nc2cccnc2)c1
3. CN(Cc1cccc(F)c1)C(=O)c1ccccc1S(=O)(=O)Nc1cccnc1
4. CCCCN(C)C(=O)c1ccccc1S(=O)(=O)Nc1cnccc1OCC
5. CCCN(CCOC)C(=O)c1ccccc1S(=O)(=O)Nc1cncc(OC)c1
6. CCCN(C)C(=O)c1ccccc1S(=O)(=O)Nc1cncc(OC)c1

[8.15, 7.77, 7.70, 7.60, 7.44, 7.54]
